- Tested on: mice
- Assay details: Acute toxicity, mice perorally
# maps each entry to its Acute toxicity, LD50

Molecule | Tgt | Acute toxicity, LD50
Cl.Cl.Cn1c(=O)n(CCCCN2CCN(C(c3ccccc3)c3ccccc3)CC2)c(=O)c2[nH]cnc21 | mice | >750.0 mg/kg
Cl.Cl.Cn1c(=O)n(CCCN2CCN(C(c3ccccc3)c3ccccc3)CC2)c(=O)c2c1ncn2Cc1ccccc1 | mice | >800.0 mg/kg
Cn1c(=O)[nH]c(=O)c2c1ncn2CCCCN1CCN(C(c2ccccc2)c2ccccc2)CC1 | mice | 1300.0 mg/kg

Data request, read-out Acute toxicity, LD50, for Cl.Cl.Cn1c(=O)n(CCCCN2CCN(C(c3ccccc3)c3ccc(Cl)cc3)CC2)c(=O)c2[nH]cnc21 (centres unmarked)
>1000.0 mg/kg

And for Cl.Cl.Cn1c(=O)n(CCCN2CCN(C(c3ccc(F)cc3)c3ccc(F)cc3)CC2)c(=O)c2[nH]cnc21 ?
>1000.0 mg/kg

And for Cl.Cl.Cn1c(=O)[nH]c(=O)c2c1ncn2CCCN1CCN(C(c2ccccc2)c2ccccc2)CC1 ?
900.0 mg/kg

And for Cl.Cl.Cn1c(=O)c2c(ncn2CC(O)CN2CCN(C(c3ccccc3)c3ccccc3)CC2)n(C)c1=O (centres unmarked) ?
>1000.0 mg/kg

And for Cl.Cl.Cn1c(=O)c2c(ncn2CC(O)CN2CCN(C(c3ccccc3)c3ccc(Cl)cc3)CC2)n(C)c1=O (racemic) ?
>1000.0 mg/kg
